- System: Streptococcus pneumoniae
- ASSAY METHOD TEXT: Antibacterial activity against tetracycline-resistant Streptococcus pneumoniae isolate 160 expressing tetM gene
- Assay type: functional
REPORTED METRIC: MIC (µg/mL)
Provide only the numeric value, understood in µg/mL.

> print(dat)
                                smiles.text    uom  test.value
1  CN(C)[C@@H]1C(O)=C(C(N)=O)C(=O)[C@@]2(O)C(O)=C3C(=O)c4c(O)c(NC(=O)[C@H]5CCCN5)cc(F)c4C[C@H]3C[C@@H]12  µg/mL         0.5
2  CN(C)[C@@H]1C(O)=C(C(N)=O)C(=O)[C@@]2(O)C(O)=C3C(=O)c4c(O)c(NC(=O)[C@@H]5CCCN5)cc(F)c4C[C@H]3C[C@@H]12  µg/mL       0.016
3  CN(C)[C@@H]1C(O)=C(C(N)=O)C(=O)[C@@]2(O)C(O)=C3C(=O)c4c(O)c(NS(C)(=O)=O)cc(F)c4C[C@H]3C[C@@H]12  µg/mL       0.016
4  CN(C)[C@@H]1C(O)=C(C(N)=O)C(=O)[C@@]2(O)C(O)=C3C(=O)c4c(O)c(NS(=O)(=O)c5cccs5)cc(F)c4C[C@H]3C[C@@H]12  µg/mL           1

Bench note: what MIC did CN(C)[C@@H]1C(O)=C(C(N)=O)C(=O)[C@@]2(O)C(O)=C3C(=O)c4c(O)c(NC(=O)[C@@H]5C[C@@H](F)CN5C)cc(F)c4C[C@H]3C[C@@H]12 show? 0.063

Entry under review: CN(C)[C@@H]1C(O)=C(C(N)=O)C(=O)[C@@]2(O)C(O)=C3C(=O)c4c(O)c(NC(=O)[C@@H]5CCCN5C)cc(F)c4C[C@H]3C[C@@H]12 . Reported MIC? 0.016

So what's the measured MIC for this one? CN(C)[C@@H]1C(O)=C(C(N)=O)C(=O)[C@@]2(O)C(O)=C3C(=O)c4c(O)c(NC(=O)CN5CCCC5)cc(F)c4C[C@H]3C[C@@H]12 0.016

Give its MIC value. Item: CN(C)[C@@H]1C(O)=C(C(N)=O)C(=O)[C@@]2(O)C(O)=C3C(=O)c4c(O)c(NC(=O)[C@@H]5C[C@H](F)CN5C)cc(F)c4C[C@H]3C[C@@H]12 0.016

I'd like to know its MIC. The compound in question is CN(C)[C@@H]1C(O)=C(C(N)=O)C(=O)[C@@]2(O)C(O)=C3C(=O)c4c(O)c(NCCNC(C)(C)C)cc(F)c4C[C@H]3C[C@@H]12 0.25

====

- Test system: Escherichia coli
- ASSAY METHOD TEXT: Antibacterial activity against Escherichia coli ATCC 25922 isolate 107
- Format: functional
We label by threshold. Values of MIC strictly beneath 2 µg/mL are label 1. Values of 2 µg/mL and up are label 0.

> print(dat)
                                 smiles.text      assay.target  assigned.label
 1  COc1cccc(C(=O)Nc2cc(F)c3c(c2O)C(=O)C2=C(O)[C@]4(O)C(=O)C(C(N)=O)=C(O)[C@@H](N(C)C)[C@@H]4C[C@@H]2C3)c1  Escherichia coli         label 0
 2  CN(C)[C@@H]1C(O)=C(C(N)=O)C(=O)[C@@]2(O)C(O)=C3C(=O)c4c(O)c(NC(=O)CN5CCCC5)cc(F)c4C[C@H]3C[C@@H]12  Escherichia coli         label 1
 3  CN(C)[C@@H]1C(O)=C(C(N)=O)C(=O)[C@@]2(O)C(O)=C3C(=O)c4c(O)c(NC(=O)c5ccn(C)n5)cc(F)c4C[C@H]3C[C@@H]12  Escherichia coli         label 0
 4  CN(C)[C@@H]1C(O)=C(C(N)=O)C(=O)[C@@]2(O)C(O)=C3C(=O)c4c(O)c(NC(=O)[C@@H]5CCCN5C)cc(F)c4C[C@H]3C[C@@H]12  Escherichia coli         label 1
 5  CN(C)[C@@H]1C(O)=C(C(N)=O)C(=O)[C@@]2(O)C(O)=C3C(=O)c4c(O)c(NC(=O)c5cccc(C(F)(F)F)c5)cc(F)c4C[C@H]3C[C@@H]12  Escherichia coli         label 0
 6  CN(C)[C@@H]1C(O)=C(C(N)=O)C(=O)[C@@]2(O)C(O)=C3C(=O)c4c(O)c(NC(=O)[C@H]5CCCN5)cc(F)c4C[C@H]3C[C@@H]12  Escherichia coli         label 0
 7  Cc1cc(C(=O)Nc2cc(F)c3c(c2O)C(=O)C2=C(O)[C@]4(O)C(=O)C(C(N)=O)=C(O)[C@@H](N(C)C)[C@@H]4C[C@@H]2C3)no1  Escherichia coli         label 0
 8  CN(C)[C@@H]1C(O)=C(C(N)=O)C(=O)[C@@]2(O)C(O)=C3C(=O)c4c(O)c(NC(=O)c5ccccc5)cc(F)c4C[C@H]3C[C@@H]12  Escherichia coli         label 0
 9  CN(C)[C@@H]1C(O)=C(C(N)=O)C(=O)[C@@]2(O)C(O)=C3C(=O)c4c(O)c(NC(=O)[C@@H]5CCN5)cc(F)c4C[C@H]3C[C@@H]12  Escherichia coli         label 1
10  CN(C)[C@@H]1C(O)=C(C(N)=O)C(=O)[C@@]2(O)C(O)=C3C(=O)c4c(O)c(NC(=O)[C@@H]5CCN5C)cc(F)c4C[C@H]3C[C@@H]12  Escherichia coli         label 1

Field: below-cutoff. Rule: recorded MIC strictly less than 2 µg/mL. Subject: CN(C)[C@@H]1C(O)=C(C(N)=O)C(=O)[C@@]2(O)C(O)=C3C(=O)c4c(O)c(NC(=O)[C@@H]5CCCCN5C)cc(F)c4C[C@H]3C[C@@H]12 label 1

Lab note: MIC threshold 2 µg/mL. Does this molecule come in strictly under it? CN(C)[C@@H]1C(O)=C(C(N)=O)C(=O)[C@@]2(O)C(O)=C3C(=O)c4c(O)c(NCC(C)(C)C)cc(F)c4C[C@H]3C[C@@H]12 label 0

Record CN(C)[C@@H]1C(O)=C(C(N)=O)C(=O)[C@@]2(O)C(O)=C3C(=O)c4c(O)c(NC(=O)[C@@H]5CCCN5)cc(F)c4C[C@H]3C[C@@H]12 : is its MIC strictly below 2 µg/mL? label 1
